# Protocol Details: Agilent ZORBAX 300 SB-C18, 150 × 1 mm, 3.5 µm; A: water + 0.01% heptafluorobutyric acid; B: acetonitrile + 0.01% heptafluorobutyric acid; gradient (min/%B) 0/0 100/90
# Experimental Setup: stereoisomer not certain
Measurement Name: LC retention time (min)

Compound	Measured
Cc1cccc(C)c1NC(=S)NCC(C)NC(=S)Nc1c(C)cccc1C (stereo unspecified)	13.9

(I) NC(=O)c1ccc[n+](C2OC(COP(=O)(O)O)C(O)C2O)c1 (stereo unspecified)
(II) NC(=O)CCCc1c[nH]c2ccccc12
(III) Cn1ccc(C(=O)O)cc1=O
(IV) Nc1cc(-c2ccc(C(=O)c3ccccc3)c(N)c2)ccc1C(=O)c1ccccc1
Task: Ascending sort, LC retention time. Answer with the labels in sequence, matching the requested order.
Output: I, III, II, IV
